target: the molecule itself; assay: SEC
property.name: stoichiometry N
Answers are plain numbers.

Consider the reported stoichiometry N for these proteins:
- Arabidopsis TPR2 TOPLESS domain (TPD), TPR2(1–209), tag removed (domain or fragment, UniProt Q9LRZ0 1-209, looked up) MSSLSRELVFLILQFLDEEKFKESVHKLEQESGFFFNIKYFEEKALAGEWDEVEKYLSGFTKVDDNRYSMKIFFEIRKQKYLEALDRNDRAKAVEILAKDLKVFATFNEELYKEITQLLTLENFRENEQLSKYGDTKSARSIMYTELKKLIEANPLFREKLAFPSFKASRLRTLINQSLNWQHQLCKNPRPNPDIKTLFLDHSCSPSNG: 4
- Arabidopsis TPR4 TOPLESS domain (TPD), TPR4(1–209), tag removed (domain or fragment, UniProt Q27GK7 1-209, looked up) MSSLSRELVFLILQFLDEEKFKDTVHRLEKESGFFFNMRYFEDSVTAGEWDDVEKYLSGFTKVDDNRYSMKIFFEIRKQKYLEALDKKDHAKAVDILVKELKVFSTFNEELFKEITMLLTLTNFRENEQLSKYGDTKSARGIMLGELKKLIEANPLFRDKLQFPSLKNSRLRTLINQSLNWQHQLCKNPRPNPDIKTLFVDHTCGHPNG: 4

Now take the following protein into account.
Prompt line: Would you kindly share the measured stoichiometry N for Arabidopsis TPR3 TOPLESS domain (TPD), TPR3(1–209), tag removed (domain or fragment, UniProt Q84JM4 1-209, looked up) MSSLSRELVFLILQFLEEEKFKESVHRLEKESGFFFNTKYFDEKVLAGEWDDVETYLSGFTKVDDNRYSMKIFFEIRKQKYLEALDRQEKAKAVEILVQDLRVFSTFNEELYKEITQLLTLQNFRENEQLSKYGDTKTARGIMLGELKKLIEANPLFRDKLMFPTLRSSRLRTLINQSLNWQHQLCKNPRPNPDIKTLFTDHTCTLPNG ?
Response line: 4

Values were extracted from paper PMC4646777.
